# tested on: Beta-2 adrenergic receptor (Homo sapiens) (UniProt P07550)
# Sequence (P07550 whole entry, looked up): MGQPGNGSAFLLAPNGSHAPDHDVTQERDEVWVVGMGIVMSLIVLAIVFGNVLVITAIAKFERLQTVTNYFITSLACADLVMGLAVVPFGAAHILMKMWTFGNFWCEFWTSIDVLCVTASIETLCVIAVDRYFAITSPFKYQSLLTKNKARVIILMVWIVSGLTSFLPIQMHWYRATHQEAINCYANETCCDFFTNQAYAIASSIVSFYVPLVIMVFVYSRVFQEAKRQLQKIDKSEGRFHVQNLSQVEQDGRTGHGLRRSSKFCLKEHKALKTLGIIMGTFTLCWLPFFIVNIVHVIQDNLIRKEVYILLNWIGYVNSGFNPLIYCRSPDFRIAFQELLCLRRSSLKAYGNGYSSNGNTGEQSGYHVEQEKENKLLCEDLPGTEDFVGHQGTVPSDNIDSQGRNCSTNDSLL
# procedure summary: Adrenergic beta2 receptor (ADRB2) small molecule antagonists, cell-based qHTS assay (AID 1963592); further: nearly all actives have a fitted effect of over 50% in size
# study conditions: CHO-ADRB2 cells, isoproterenol-stimulated cAMP HTRF ratio, 0.5 h; series mostly up to 92.4 µM
# Text: U.S. Tox21 Program National Center for Advancing Translational Sciences [NCATS] Division of Preclinical Innovation [DPI] U.S. Environmental Protection Agency [EPA] National Institutes of Environmental Health Sciences [NIEHS] National Toxicology Program [NTP] U.S. Food and Drug Administration [FDA] […] The principle of cAMP-Gs dynamic assay is based on HTRF technology, which facilitates the fluorescence resonance energy transfer (FRET) between donor Europium cryptate and acceptor d2-labeled cAMP. […]
Results filed as inconclusive are left out. Calls of active or inactive are those of the source. The call rests on the fitted dose curve.
quantity name: outcome

                                    compound  quantity_name  observed
 0                     C=CC(=O)OCCCCCCCC(C)C        outcome  inactive
 1       Cc1cc(C)nc(NS(=O)(=O)c2ccc(N)cc2)n1        outcome  inactive
 2                              CCCCCCCCCCCO        outcome  inactive
 3                                 CCOCCOCCO        outcome  inactive
 4                        Cc1ncc(CO)c(CO)c1O        outcome  inactive
 5                      Clc1cc(Cl)c(Cl)cc1Cl        outcome  inactive
 6                              NC(CO)(CO)CO        outcome  inactive
 7                              CNC(=S)N(C)C        outcome  inactive
 8  CCC[C@H](N[C@@H](C)C(=O)N1[C@H](C(=O)O)C[C@@H]2CCCC[C@@H]21)C(=O)OCC        outcome  inactive
 9            O=C1O[C@H]([C@H](O)CO)C(O)=C1O        outcome  inactive
10                       c1cc(-c2ccncc2)ccn1        outcome  inactive
11                                 CCCCCCCCC        outcome  inactive
12                        C=C(C)C(=O)OCC(C)C        outcome  inactive
13                             Cc1cccc(O)c1C        outcome  inactive
14                     Nc1ccc(S(N)(=O)=O)cc1        outcome  inactive
15  CN(C)CCC(c1ccccc1)c1ccccn1 (configuration not stated)        outcome  inactive
16                                 Oc1ccccc1        outcome  inactive
17    COc1cc(O)c(C(=O)c2ccccc2)cc1S(=O)(=O)O        outcome  inactive
18                    c1ccc2c(c1)ccc1ccccc12        outcome  inactive
19                         CCCOC(=O)c1ccccc1        outcome  inactive
20                       CC(C)=CCC/C(C)=C\CO        outcome  inactive
21                CN(C)CCN(Cc1cccs1)c1ccccn1        outcome  inactive
22  CC1=C(/C=C/C(C)=C/C=C/C(C)=C/C(=O)Nc2ccc(O)cc2)C(C)(C)CCC1        outcome  inactive
23         Cc1ccc([N+](=O)[O-])cc1S(=O)(=O)O        outcome  inactive
24                           Brc1nc2ccccc2s1        outcome  inactive
25                    CCCCNS(=O)(=O)c1ccccc1        outcome  inactive
26              C=C(C)C(=O)Nc1ccc(Cl)c(Cl)c1        outcome  inactive
27                 C/C=C/C(=O)N(CC)c1ccccc1C        outcome  inactive
28                          Cc1ccc(C(=O)O)o1        outcome  inactive
29  O=C(O)CCCCC1CCSS1 (configuration not stated)        outcome  inactive
30                   Oc1c(Cl)cc(Cl)c(Cl)c1Cl        outcome  inactive
31                            CCCCCCCCC(=O)O        outcome  inactive

* * *

# tested on: Muscarinic acetylcholine receptor M1 (Homo sapiens)
# procedure summary: Cholinergic receptor muscarinic 1 (CHRM1) small molecule agonists, cell-based qHTS assay (AID 1963589); further: nearly all actives have a fitted effect of over 35% in size
# study conditions: CHRM1-CHO cells, agonist mode, calcium flux fluorescence; series mostly up to 76.8 µM
The source made the active and inactive calls. Calls come from the whole dose curve.
quantity name: outcome

>>> print(df.to_string())
                                   compound  observed
0                  Cc1cccc([N+](=O)[O-])c1C  inactive
1                               Cc1ncc[nH]1  inactive
2           CCn1cc(C(=O)O)c(=O)c2ccc(C)nc21  inactive
3                               CCCCCC(=O)O  inactive
4              COCC(C)N (centres undefined)  inactive
5  CC(CCl)OP(=O)(OC(C)CCl)OC(C)CCl (centres undefined)  inactive
6                          COC(=O)CCC(=O)OC  inactive
7                               CCCCCNCCCCC  inactive
8               C=CC(=O)NC(C)(C)CS(=O)(=O)O  inactive

* * *

# procedure summary: Nuclear factor erythroid 2-related factor 2/antioxidant responsive element (Nrf2/ARE) small molecule agonists: qHTS cell viability counter screen in human keratinocytes (AID 1919968); further: nearly all actives have a fitted effect of over 55% in size
# study conditions: KeratinoSens HaCaT ARE cells viability, CellTiter-Fluor, 24 h; series mostly up to 92.4 µM
Results filed as inconclusive are left out. The source made the active and inactive calls. Calls come from the whole dose curve; as a rule, active = well fitted cell-killing curve with a large enough effect in the repeat runs; inconclusive = weak or mixed curves, or effect the other way; inactive = flat fitted curve, though single readings scatter.
quantity name: outcome

>>> df
                                    compound  quantity_name  observed
 0         NC(=O)N/N=C/c1ccc([N+](=O)[O-])o1        outcome  inactive
 1                           CCCCN(CCCC)CCCC        outcome  inactive
 2                                 Cc1ccncc1        outcome  inactive
 3                                Clc1ccccn1        outcome  inactive
 4                   NC(N)=NC(N)=NCCc1ccccc1        outcome  inactive
 5                            O=C(O)c1ccccc1        outcome  inactive
 6                            O=C(O)c1cccnc1        outcome  inactive
 7    OC[C@@H](O)[C@H](O)[C@H](O)[C@@H](O)CO        outcome  inactive
 8                        C1N2CN3CN1CN(C2)C3        outcome  inactive
 9  CC/C=C(\C(=O)N[C@@H]1C(=O)N2C(C(=O)OCOC(=O)C(C)(C)C)=C(COC(N)=O)CS[C@H]12)c1csc(N)n1        outcome  inactive
10         CN(C)Cc1cc(CN(C)C)c(O)c(CN(C)C)c1        outcome  inactive
11  OC[C@@H](O)[C@@H](O[C@@H]1O[C@H](CO)[C@H](O)[C@H](O)[C@H]1O)[C@H](O)[C@@H](O)CO        outcome  inactive
12  CC(C)CC(C)CC(O)CC(C)C (stereo not drawn)        outcome  inactive

* * *

# tested on: 5-hydroxytryptamine receptor 2A (Homo sapiens)
# procedure summary: 5-hydroxytryptamine receptor 2A (HTR2A) small molecule agonists, cell-based qHTS assay (AID 1963587); further: nearly all actives have a fitted effect of over 30% in size
# study conditions: HTR2A-CHO cells, calcium flux fluorescence, agonist mode; series mostly up to 76.8 µM
Inconclusive results are not listed. Active and inactive are the calls of the source. The call rests on the fitted dose curve.
quantity name: outcome

                                    molecule  observed
 0                            CCCCCCC(C)(C)S  inactive
 1                  Cc1cccc([N+](=O)[O-])c1C  inactive
 2  C[C@]12C[C@H](O)[C@H]3[C@@H](CCC4=CC(=O)CC[C@@]43C)[C@@H]1CC[C@@H]2C(=O)CO  inactive
 3   COC(C)COC(C)COC(C)CO (stereo not given)  inactive
 4                   CC(=O)Nc1ccc(C(=O)O)cc1  inactive
 5                                    CCOCCO  inactive
 6       CCCCCCCCOc1ccc(C(=O)c2ccccc2)c(O)c1  inactive
 7                    c1ccc2c(c1)Cc1ccccc1-2  inactive
 8                                 CC(C)=CCO  inactive
 9                               Cc1ccccc1Cl  inactive
10                           Brc1nc2ccccc2s1  inactive
11                   CCN(CC)C(=O)c1cccc(C)c1  inactive
12                    O=C(O)c1cccc(C(=O)O)c1  inactive
13        CC(O)COc1ccccc1 (stereo not given)  inactive
14              Cc1ccc(O)c(-n2nc3ccccc3n2)c1  inactive
